Read-out: Transforming growth factor beta 1 (TGFb1), TGFB1 (gene 7040)
Experiment: BSK_KF3CT_TGFb1: BioMAP Diversity Plus: KF3CT Assay for Transforming growth factor beta 1 (TGFb1) Biomarker Activity (AID 2283072)
Settings: primary human keratinocytes with fibroblasts; actives raise or lower the signal
Active and inactive are the calls of the source. The calls were made as follows: active = hit-call score of the fitted dose curve at least 0.9, where 1 is the maximum; inactive = score below 0.9.
Field 'call' accepts yes (1) for active, no (0) for inactive

Would you please look over these solved cases?
C=C(C)C(N)=O = no (0)
CCOC(=O)C=Cc1ccccc1 = no (0)
CCC(=O)OCC=Cc1ccccc1 = no (0)
CCCCCCCC1CCCC1=O (stereo not given) = yes (1)
CC=CC(=O)C1=C(C)C=CCC1(C)C = no (0)

Incoming: Short answer needed: outcome of this test for CC(=O)CCC=C(C)CCC=C(C)C ?
Outgoing: no (0)

Incoming: // repeat for C=CC(=O)OCC(CO)(COC(=O)C=C)COC(=O)C=C and report
Outgoing: yes (1)

Incoming: // next record CC1=CC(C)C(C=O)C(C)C1 (stereo not given) (tested in a mixture with another compound)
Outgoing: no (0)

Incoming: Also need COC(=O)c1ccc(C(=O)OC)cc1 , thanks.
Outgoing: no (0)

Incoming: Same thing, different compound: C[C@]12CC[C@@H]3c4ccc(O)cc4CC[C@H]3[C@@H]1CC[C@@H]2O
Outgoing: no (0)
